Assay: Estimation of LD50 in mice
Parameters: species or system mouse (ICR)
Conditions: mouse, in vivo; oral; kept for seven days; Probit analysis
Structures can show the parent of a compound that is named as a salt.
Observable: LD50 at 168 h (mg/kg)

>>> value_measured("O[C@@H](c1cccc(C(F)(F)F)c1)[C@H]1CCN1 (relative stereo) [Erythro-(I) hydrochloride]")
499
>>> value_measured("O[C@@H](c1ccccc1)[C@H]1CCN1 (relative stereo) [Erythro-(VII) hydrochloride, 2-(α-hydroxybenzyl)azetidine, reference compound]")
902
